test system: FGFR4; details: concentration: 1 μM, replicates: in singlicate; n = 1;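 also: KINOMEscan kinase panel screen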
experimental.readout: %Inh (%)

| compound | unit.name | measurement |
| --- | --- | --- |
| Nc1ncnc2c1ncn2-c1cccc2ccccc12 [SKF-97184] | % | 0 |
| CCC(=O)c1c(-c2ccccc2)c2cc(Cl)ccc2c(=O)n1Cc1cc(S(C)(=O)=O)n(CC(F)F)n1 | % | 0 |
| Cc1ccc(Oc2ccc(Nc3ncnc4cc[nH]c34)cc2C)cn1 | % | 11 |
| COc1ccc(-n2cnc3c(N)ncnc32)cc1 [SKF-97236] | % | 18 |
| O=c1cc(N2CCOCC2)nc2n(Cc3ccc(F)c(Cl)c3)ccn12 [GSK2297099] | % | 0 |
